Just for reference, patent US8273766B2 is where these values come from.

target system: CCR3 (Cavia porcellus)
Sequence (Q9Z2I3 whole entry): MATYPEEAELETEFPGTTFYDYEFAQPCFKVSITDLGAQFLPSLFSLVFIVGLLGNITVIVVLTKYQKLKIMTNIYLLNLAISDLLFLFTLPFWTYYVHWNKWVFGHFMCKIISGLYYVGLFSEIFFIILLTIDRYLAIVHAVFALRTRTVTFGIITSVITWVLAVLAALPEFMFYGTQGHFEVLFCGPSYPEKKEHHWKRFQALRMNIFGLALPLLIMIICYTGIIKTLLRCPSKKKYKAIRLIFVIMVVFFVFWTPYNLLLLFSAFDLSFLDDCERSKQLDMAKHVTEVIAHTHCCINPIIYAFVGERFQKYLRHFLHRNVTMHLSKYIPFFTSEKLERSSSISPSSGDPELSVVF
method notes: CCR3 antagonistic action: eotaxin-induced migration of guinea pig eosinophils (chemotaxis chamber)
experimental context: inhibition of migration of guinea pig eosinophils toward guinea pig eotaxin 100 ng/mL; 30 min pretreatment at 37° C., 1 hour reaction
pIC50: −log10 of the molar value.
Decision: pIC50 >= 8 yields Met, all other cases yield Not met.

                                   molecule    label
0  CC(C)(O)c1ccc(CNCCN2Cc3ccc(F)cc3CC2Cc2ccc(F)cc2)cc1 (centres unmarked)  Not met
1  CCNc1ccc(CNCCN2Cc3ccc(F)cc3CC2Cc2ccc(F)cc2)cc1 (centres unmarked)  Not met
2  CC(C)Nc1ccc(CNCCN2Cc3ccc(F)cc3CC2Cc2ccc(F)cc2)cc1 (centres unmarked)      Met
3  CS(=O)(=O)Nc1cccc(CNCCN2Cc3ccc(F)cc3CC2Cc2ccc(F)cc2)c1 (centres unmarked)      Met
4  CC(C)Nc1ccc(CNCCN2Cc3cc(F)ccc3CC2Cc2ccc(F)cc2)cc1 (centres unmarked)  Not met
5  COCCNc1ccc(CNCCN2Cc3ccc(F)cc3CC2Cc2ccc(F)cc2)cc1 (centres unmarked)      Met
6  CS(=O)(=O)Nc1cccc(CNCCN2Cc3ccc(F)cc3CC2Cc2ccc(Cl)cc2)c1 (centres unmarked)  Not met

* * *

target system: UniProt Q9Z2I3
method notes: CCR3 antagonistic action: eotaxin-induced migration of guinea pig eosinophils (chemotaxis chamber)
experimental context: inhibition of migration of guinea pig eosinophils toward guinea pig eotaxin 100 ng/mL; 30 min pretreatment at 37° C., 1 hour reaction
pIC50: −log10 of the molar value.
Below is a list of entries, each paired with its recorded pIC50 value.
endpoint label: pIC50

>>> print(df.to_string())
                                   compound  value_measured
0  CC(C)(C)c1ccc(CNCCN2Cc3ccc(F)cc3CC2Cc2ccc(Cl)cc2)cc1 (stereo not shown)            7.10
1  CC(C)(C)c1ccc(CNCCN2Cc3ccccc3CC2Cc2ccc(F)cc2)cc1 (stereo not shown)            7.52
2  Fc1ccc(CC2Cc3ccccc3CN2CCNCc2ccncc2)cc1 (stereo not shown)            7.85
3  Fc1ccc(CC2Cc3cc(F)ccc3CN2CCNCc2ccncc2)cc1 (stereo not shown)            8.70
